Tested on: S. aureus
Test Description: Minimum inhibitory concentration, broth microdilution (CLSI)
Assay type: cell-based, Staphylococcus aureus
Particulars: Staphylococcus aureus; broth microdilution in MHB, 18–24 h
Lab note: cut-off is 30 µM. Strictly less in MIC90 is T. Exactly 30 µM or more is F.

Reference set, count: 5
NCCNC(=O)[C@H](Cc1c[nH]c2ccccc12)NC(=O)c1cc(Br)ccc1NC(=O)Cc1cccc2ccccc12 [Compound 12b]
F
NCCNC(=O)[C@H](Cc1c[nH]c2ccccc12)NC(=O)c1cc(-c2ccc(F)cc2)ccc1N [Compound 16c]
F
COc1ccc2ccccc2c1C(=O)Nc1ccc(Br)cc1C(=O)N[C@@H](Cc1c[nH]c2ccccc12)C(=O)NCCN [Compound 12c]
T
NCCNC(=O)[C@H](Cc1c[nH]c2ccccc12)NC(=O)c1cc(-c2ccc3ccccc3c2)ccc1N [Compound 16b]
T
NCCNC(=O)[C@H](Cc1c[nH]c2ccccc12)NC(=O)c1cc(Br)ccc1NC(=O)c1ccsc1 [Compound 12h]
F

Is it true that MIC90 reported for NCCCNC(=O)[C@H](Cc1c[nH]c2ccccc12)NC(=O)c1cc(Br)ccc1NC(=O)c1ccc2ccccc2c1 [Compound 13a] is less than 30 µM? T

Is it true that MIC90 reported for NCCCC[C@H](N)C(=O)NCCNC(=O)[C@H](Cc1c[nH]c2ccccc12)NC(=O)c1cc(Br)ccc1NC(=O)c1cccc(-c2ccccc2)c1 [Compound 19b] is less than 30 µM? T

###

Test system: S. aureus
Test Description: Minimum inhibitory concentration, broth microdilution (CLSI)
Type: cell-based, Staphylococcus aureus
Particulars: Staphylococcus aureus; broth microdilution in MHB, 18–24 h
Consider the following molecules and their measured MIC90 readings.
Write the number in µM without appending the unit.

COc1cc2ccccc2cc1C(=O)Nc1ccc(Br)cc1C(=O)N[C@@H](Cc1c[nH]c2ccccc12)C(=O)NCCN [Compound 12d]
7.8
NCCNC(=O)[C@H](Cc1c[nH]c2ccccc12)NC(=O)c1cc(Br)ccc1NC(=O)c1ccc(-c2ccccc2)cc1 [Compound 12k]
7.8

Attention now turns to another entry.
Please list MIC90 recorded for the molecule NCCNC(=O)[C@H](Cc1c[nH]c2ccccc12)NC(=O)c1cc(-c2ccc(C(F)(F)F)cc2)ccc1N [Compound 16d] 15.6

###

System: E. coli
Test Description: Minimum inhibitory concentration, broth microdilution (CLSI)
Assay type: cell-based, Escherichia coli
Particulars: Escherichia coli; broth microdilution in MHB, 18–24 h
Consider the following molecules and their measured MIC90 readings.

Illustrative cases are given below, each with its answer.
COc1ccc2ccccc2c1C(=O)Nc1ccc(Br)cc1C(=O)N[C@@H](Cc1c[nH]c2ccccc12)C(=O)NCCCN [Compound 13c]
62.5 µM
NCCCNC(=O)[C@H](Cc1c[nH]c2ccccc12)NC(=O)c1cc(Br)ccc1NC(=O)Cc1cccc2ccccc12 [Compound 13b]
> 125 µM
NCCNC(=O)[C@H](Cc1c[nH]c2ccccc12)NC(=O)c1cc(Br)ccc1NC(=O)c1ccccc1-c1ccccc1 [Compound 12i]
> 125 µM
NCCCC[C@H](N)C(=O)NCCNC(=O)[C@H](Cc1c[nH]c2ccccc12)NC(=O)c1cc(Br)ccc1NC(=O)c1ccc(-c2ccccc2)cc1 [Compound 19c]
62.5 µM

Please list MIC90 recorded for the molecule COc1cc2ccccc2cc1C(=O)Nc1ccc(Br)cc1C(=O)N[C@@H](Cc1c[nH]c2ccccc12)C(=O)NCCN [Compound 12d] > 125 µM

Please list MIC90 recorded for the molecule NCCNC(=O)[C@H](Cc1c[nH]c2ccccc12)NC(=O)c1cc(Br)ccc1NC(=O)c1cccc(-c2ccccc2)c1 [Compound 12j] > 125 µM

Please list MIC90 recorded for the molecule NCCNC(=O)[C@H](Cc1c[nH]c2ccccc12)NC(=O)c1cc(Br)ccc1NC(=O)Cc1cccc2ccccc12 [Compound 12b] > 125 µM

Please list MIC90 recorded for the molecule NCCCC[C@H](N)C(=O)NCCNC(=O)[C@H](Cc1c[nH]c2ccccc12)NC(=O)c1cc(Br)ccc1NC(=O)c1cccc(-c2ccccc2)c1 [Compound 19b] 15.6 µM

Please list MIC90 recorded for the molecule COc1cc2ccccc2cc1C(=O)Nc1ccc(Br)cc1C(=O)N[C@@H](Cc1c[nH]c2ccccc12)C(=O)NCCCN [Compound 13d] 62.5 µM

Please list MIC90 recorded for the molecule NCCNC(=O)[C@H](Cc1c[nH]c2ccccc12)NC(=O)c1cc(Br)ccc1NC(=O)c1cccs1 [Compound 12g] > 125 µM
